Cited source: paper PMC10397247

Target System: T1, 4H918-bN
T1 chain: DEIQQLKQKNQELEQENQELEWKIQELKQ
Method Summary: two-hybrid library CCNG1;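 further: natural log of median RNA to DNA barcode read ratio; higher means stronger binding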
Quantity Kind: interaction score

DKIQQLKQEIQELKQKIQELKWENQELEQ [4H2667-bN]: -1.12
DKIQQLKQEIQELKQKNQELEWEIQELEQ [4H2673-bN]: -1.57
DKNQQLEQKIQELEQENQELKWEIQELKQ [4H3354-bN]: -0.605

(I) DKNQQLKQKNQELKQKIQELKWEIQELEQ [4H4073-bN]
(II) DKIQQLKQENQELEQEIQELKWEIQELEQ [4H2697-bN]
(III) DKNQQLKQEIQELEQENQELEWKIQELKQ [4H3606-bN]
## Input Sort ascending by interaction score. Please express your ranking as an ordered list of the labels.
## Output II, I, III
(II: -1.97, I: -0.772, III: -0.149)

(a) DENQQLEQEIQELEQKNQELKWEIQELEQ [4H1081-bN]
(b) DKIQQLKQEIQELEQKNQELKWEIQELKQ [4H2618-bN]
(c) DENQQLKQKIQELEQKNQELEWKIQELEQ [4H1845-bN]
## Input Arrange items by their interaction score values in increasing order. Returns: the labels listed in the requested order.
## Output a, c, b
(a: -1.87, c: -1.04, b: 0.558)

(I) DEIQQLEQEIQELKQKNQELEWKIQELKQ [4H118-bN]
(II) DEIQQLKQKIQELKQKNQELEWENQELEQ [4H883-bN]
## Input Could you tell me which of these two has the smaller interaction score figure? First: I Second: II Pick one and reply with its label.
## Output II
(II: -0.986, I: -0.314)

(I) DEIQQLEQEIQELKQKIQELKWKNQELKQ [4H112-bN]
(II) DKNQQLEQEIQELKQKNQELEWKIQELEQ [4H3189-bN]
## Input When their interaction score values are compared, which is larger, I or II ? Label of pick, please.
## Output I
(I: -0.456, II: -0.805)
